Values from patent US20220273659A1

# Target system: CDK1 (cyclin B) (Homo sapiens)
# Construct: purchased Invitrogen Life Technologies (assay service)
# Sequence (P06493 whole entry): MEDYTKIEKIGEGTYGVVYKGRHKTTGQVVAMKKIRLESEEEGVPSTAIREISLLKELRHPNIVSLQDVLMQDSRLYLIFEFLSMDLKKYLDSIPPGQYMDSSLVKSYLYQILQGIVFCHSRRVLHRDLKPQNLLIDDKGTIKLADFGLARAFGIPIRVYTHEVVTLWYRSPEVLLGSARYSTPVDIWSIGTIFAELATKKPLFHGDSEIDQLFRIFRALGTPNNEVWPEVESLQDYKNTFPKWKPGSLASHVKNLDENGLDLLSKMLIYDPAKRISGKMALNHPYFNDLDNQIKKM
# Sequence (P14635 whole entry partner): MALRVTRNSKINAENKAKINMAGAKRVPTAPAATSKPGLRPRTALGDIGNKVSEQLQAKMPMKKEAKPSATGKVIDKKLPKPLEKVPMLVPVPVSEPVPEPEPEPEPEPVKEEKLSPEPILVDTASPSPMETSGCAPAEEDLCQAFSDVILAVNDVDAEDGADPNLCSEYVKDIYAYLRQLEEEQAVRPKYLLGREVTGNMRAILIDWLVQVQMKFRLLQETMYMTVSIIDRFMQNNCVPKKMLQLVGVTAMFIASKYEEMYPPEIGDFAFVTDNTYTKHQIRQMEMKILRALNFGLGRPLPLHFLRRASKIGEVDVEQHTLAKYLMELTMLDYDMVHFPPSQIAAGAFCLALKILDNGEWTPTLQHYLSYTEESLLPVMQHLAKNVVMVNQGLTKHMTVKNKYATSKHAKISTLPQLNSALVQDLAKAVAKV
# Experiment summary: Z'-LYTE kinase assay
# Assay type: biochemical
# Condition info: read-out: CDK1/B IC50
# Experimental: The plates were shaken for 30 seconds, and incubated for 60 minutes at room temperature. […] The plates were read on fluorescence plate reader with Dual emission at 445 nm and 520 nm. The following equations were used for Z′-LYTE™ Screening Assay Data Analysis.
Readout label: IC50 (nM)

| Structure string | Readout label | Readout unit | Result comparator | Obs value |
| --- | --- | --- | --- | --- |
| N#Cc1cc2cnc(Nc3ccc4c(c3)CCN(CC(N)=O)C4)nc2n(C2CCCC2)c1=O | IC50 | nM | = | 683 |
| CN(C)CCN1CCc2cc(Nc3ncc4cc(C#N)c(=O)n(C5CCCC5)c4n3)ccc2C1 | IC50 | nM | = | 655 |
| N#Cc1cc2cnc(Nc3ccc4c(n3)CCNC4)nc2n(C2CCCC2)c1=O | IC50 | nM | > | 5000 |
| CS(=O)(=O)N1CC(Nc2ncc3cc(C#N)c(=O)n(C4CCCC4)c3n2)C1 | IC50 | nM | > | 4170 |

----------
Heads up, these compounds all have IC50 values measured for PI3Kδ kinase (Homo sapiens, UniProt O00329).
Readout label: IC50 (nM)

| Structure string | Target system | Readout label | Readout unit | Result comparator | Obs value |
| --- | --- | --- | --- | --- | --- |
| CN1CCN(c2ccc(Nc3cc4c(cn3)cc(C#N)c(=O)n4C3CCCC3)cc2)CC1 | PI3Kδ kinase (Homo sapiens, UniProt O00329) | IC50 | nM | = | 549 |
| CN(C)S(=O)(=O)N1CCC(Nc2ncc3cc(C#N)c(=O)n(C4CCCC4)c3n2)CC1 | PI3Kδ kinase (Homo sapiens, UniProt O00329) | IC50 | nM | > | 48200 |
| N#Cc1cc2cnc(NC3CCN(S(=O)(=O)CC(F)(F)F)CC3)nc2n(C2CCCC2)c1=O | PI3Kδ kinase (Homo sapiens, UniProt O00329) | IC50 | nM | > | 44000 |
| CN(C)Cc1c[nH]c2cc(Nc3ncc4cc(C#N)c(=O)n(C5CCCC5)c4n3)ccc12 | PI3Kδ kinase (Homo sapiens, UniProt O00329) | IC50 | nM | = | 1010 |
| N#Cc1cc2cnc(Nc3ccc4c(c3)NC(=O)CC4)nc2n(C2CCCC2)c1=O | PI3Kδ kinase (Homo sapiens, UniProt O00329) | IC50 | nM | = | 955 |
| N#Cc1cc2cnc(Nc3cccc(S(N)(=O)=O)c3)nc2n(C2CCCC2)c1=O | PI3Kδ kinase (Homo sapiens, UniProt O00329) | IC50 | nM | = | 130 |
| CS(=O)(=O)N1CCC[C@@H](Nc2ncc3cc(C#N)c(=O)n(C4CCCC4)c3n2)C1 | PI3Kδ kinase (Homo sapiens, UniProt O00329) | IC50 | nM | = | 1710 |
| CN1CCC(n2cc(Nc3ncc4cc(C#N)c(=O)n(C5CCCC5)c4n3)cn2)CC1 | PI3Kδ kinase (Homo sapiens, UniProt O00329) | IC50 | nM | = | 22 |
